Just for reference, paper PMC4876717 is where these values come from.

Assay: Lipophilicity, n-octanol/PBS liquid-liquid partition
Type: physicochemical
Details: pH 7.4
observable: logD

> print(dat)
                                   compound  observable  observed.measurement
1  [11CH3]Oc1ccccc1CCCCCCC(=O)c1ncc(-c2ccccn2)o1 [[^11C]MPPO]        logD                  3.43
